- System: LXRa:RXRa (NR concentration 270 nM, RXRa partner concentration 90 nM)
- procedure-summary: PBM binding z-score (relative to random genomic background probes); higher = stronger binding; sequences stand for … in GC…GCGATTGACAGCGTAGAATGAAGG
Provide the reported PBM binding z-score of each item.

{"monomer-sequence": "ATCTCTAGGCAACCAAGTTCAGTGAATGCCGAAC", "reported-value": 0.227}
{"monomer-sequence": "TCGCCTAGGTCATGCGGGCCAGTATAGTGTCGGC", "reported-value": 2.65}

// input: 6 sequences below; output: PBM binding z-score for each
1. ACAGACAGGTGATGAATGTAACTCAGGCTATCAT
2. CTCGAAAGGTTGTGCTCAGGTGAGTATACCAAAC
3. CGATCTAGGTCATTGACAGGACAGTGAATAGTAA
4. CATCAAAGTTCAAGGTAACGTAACAGAAAGCAGC
5. CCTGCTAGGTCAATGGTCAGCTATAGCAGCTCGC
6. CCTAGCAGGCAAATCTGGGTCACTCAAGGCTTGA

Result block:
-0.163
0.617
2.86
5.7
2.23
1.35

// input: 5 sequences below; output: PBM binding z-score for each
1. GGAACGAGGGCATTCGAGTTGATAGGATGGCGAT
2. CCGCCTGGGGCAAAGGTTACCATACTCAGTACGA
3. TCTATTAGTTGAAGGGGAACCGACGAGTCCGTTT
4. GCTAACAGGCCATTTGGGTCACTCAATGACGGGC
5. GGACCGAGGGCATTCGAGTTGATAGCATGGCGAT

Result block:
1.66
1.77
1.19
0.268
1.86

// input: 3 sequences below; output: PBM binding z-score for each
1. AGTCAAAGTTCACTGGGTAACGTAAGATTCAGCT
2. GATACAGGGTCAAGGCCAGGGTACGCGTATTGAT
3. CCTACTGGGCCTTCAGGTCATTGATATCAACGTT

Result block:
5.02
4.26
0.751

// input: 3 sequences below; output: PBM binding z-score for each
1. GTAGACAGGTGAAACGCAGGTAACTCAGGGTGGC
2. ATACCAAGGTGATCGTGAGGTCGCTGATACTAAC
3. TCTTGTAGATCAACAGGATGTTAAGAAAGATCGA

Result block:
1. 0.114
2. 0.653
3. 0.173

FYI, the data here is from the supplement of paper PMC6555819.
